experiment-notes: LD50 (lethal dose 50%) value
recorded-conditions: rat, in vivo; insecticide as such; subjects typically rats
measurement-label: LD50

Data request, read-out LD50, for `CC1(C)[C@H](C(=O)O[C@H](C#N)c2cccc(Oc3ccccc3)c2)[C@@H]1C=C(Br)Br`
~15000 mg/kg
